Target: human HER3 endogenously expressed on human cancer cells (SK-Br-3, BT-474, MCF7) (human, UniProt P21860 20-1342)
Test: cell-based or functional assay
Entries and their measured SK-Br-3 pAkt IC50 follow.
observed.property: SK-Br-3 pAkt IC50 (pM)

* MOR13666 (antibody, human IgG1, lambda, V domains shown, Tested as IgG) VH: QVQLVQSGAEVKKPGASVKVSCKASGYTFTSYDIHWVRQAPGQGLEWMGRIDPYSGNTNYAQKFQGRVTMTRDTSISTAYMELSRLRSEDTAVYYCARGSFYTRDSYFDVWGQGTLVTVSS VL: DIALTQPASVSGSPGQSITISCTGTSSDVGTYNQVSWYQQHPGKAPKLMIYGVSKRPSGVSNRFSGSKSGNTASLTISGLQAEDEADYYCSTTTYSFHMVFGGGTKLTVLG | 78
* MOR12615 (antibody, human IgG1, lambda, V domains shown, Tested as IgG) VH: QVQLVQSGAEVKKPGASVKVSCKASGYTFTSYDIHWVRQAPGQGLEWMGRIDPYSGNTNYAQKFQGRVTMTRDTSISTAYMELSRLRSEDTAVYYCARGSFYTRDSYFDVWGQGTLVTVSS VL: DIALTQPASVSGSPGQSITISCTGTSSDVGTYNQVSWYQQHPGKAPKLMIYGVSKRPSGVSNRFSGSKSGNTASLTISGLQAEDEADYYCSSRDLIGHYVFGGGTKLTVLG | 101
* MOR12603 (antibody, human IgG1, kappa, V domains shown, Tested as IgG) VH: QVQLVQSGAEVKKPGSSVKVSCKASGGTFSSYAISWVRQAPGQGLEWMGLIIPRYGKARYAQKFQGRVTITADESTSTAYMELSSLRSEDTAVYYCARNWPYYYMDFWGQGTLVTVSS VL: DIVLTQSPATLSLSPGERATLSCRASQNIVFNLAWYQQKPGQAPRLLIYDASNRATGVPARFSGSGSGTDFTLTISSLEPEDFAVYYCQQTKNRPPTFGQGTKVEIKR | 17
* MOR12604 (antibody, V domains shown, Tested as IgG) VH: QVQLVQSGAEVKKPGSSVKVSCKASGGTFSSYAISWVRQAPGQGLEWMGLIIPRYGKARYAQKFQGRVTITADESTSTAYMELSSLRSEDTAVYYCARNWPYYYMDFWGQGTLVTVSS VL: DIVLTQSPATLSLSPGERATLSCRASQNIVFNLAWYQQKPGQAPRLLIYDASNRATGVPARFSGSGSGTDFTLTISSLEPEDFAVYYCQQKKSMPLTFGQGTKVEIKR | 17
* MOR13657 (antibody, human IgG1, lambda, V domains shown, Tested as IgG) VH: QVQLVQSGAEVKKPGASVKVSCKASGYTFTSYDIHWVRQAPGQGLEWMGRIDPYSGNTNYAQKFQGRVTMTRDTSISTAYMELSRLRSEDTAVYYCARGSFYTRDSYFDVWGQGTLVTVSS VL: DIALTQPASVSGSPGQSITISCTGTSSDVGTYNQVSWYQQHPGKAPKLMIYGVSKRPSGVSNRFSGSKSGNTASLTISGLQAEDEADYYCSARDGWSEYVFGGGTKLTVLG | 33

Value source: patent US20130251703A1
